- TARGET_SYSTEM: Nuclear receptor subfamily 1 group I member 2 (Rattus norvegicus)
- PROTOCOL_DETAILS: qHTS assay for small molecule activators of the rat pregnane X receptor (rPXR) signaling pathway (AID 651751); also: 0% is about no effect
- COND: rPXR reporter cells, luciferase (One-Glo), 24 h
Calls of active or inactive are those of the source. No rule for the calls is given here.
MEASURED_PARAMETER: max response

Before answering, review these 3 worked examples.
- O=[N+]([O-])c1cccc(Cl)c1: 0.107% (inactive)
- Cc1ccc(Cl)cc1: -4.31% (inactive)
- O=Cc1ccccc1Cl: -0.844% (inactive)

Recorded result, C(=C/c1ccccc1)/c1ccccc1 , max response: 0.267% (inactive)

Recorded result, Cc1ccc(CO)cc1 , max response: 4.72% (inactive)

Recorded result, COCCOC(=O)c1ccccc1C(=O)OCCOC , max response: -0.386% (inactive)

----------
- PROTOCOL_DETAILS: qHTS assay for small molecule antagonists of the retinoid-related orphan receptor gamma (ROR-gamma) signaling pathway - cell viability counter screen (AID 720652);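 also: CHO reporter cells with doxycycline-induced ROR-gamma expression; compound exposure lasted 16 hr before ATP read; % is scaled to controls: 0 for no effect and ±100 for the full control effect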
- COND: RORgamma reporter cell line viability counter screen; series mostly up to 92.2 µM
Inconclusive results are not listed. The source made the active and inactive calls. Calls follow the shape of the dose curve; as a rule, active = well fitted cell-killing curve with a large enough effect in the repeat runs; inconclusive = weak or mixed curves, or effect the other way; inactive = flat fitted curve, though single readings scatter.
Returns: one label drawn from active, inactive

* C=CCOC(=O)CCCCCCCC | inactive
* O=c1[nH][nH]c(=O)c2cc([N+](=O)[O-])ccc12 | inactive
* Cc1cccc2ccccc12 | inactive
* O=C(O)c1cccc(Cl)c1Cl | inactive
* O=C(O)c1ccc(Cl)cc1Cl | inactive

// outcome(item) with item = Cc1cc(C(=O)O)ccc1[N+](=O)[O-]
inactive

// outcome(item) with item = O=C(Cl)c1ccccc1[N+](=O)[O-]
inactive

// outcome(item) with item = Cc1ccc(C(=O)O)cc1
inactive

// outcome(item) with item = CC(C)C(C)C
inactive

// outcome(item) with item = CCCC=O
inactive

// outcome(item) with item = O=C(O)CNC(=O)c1ccc(CO)o1
inactive

// outcome(item) with item = CCCCN(CCO)CCCC
inactive

// outcome(item) with item = O=C(O)c1ccccc1[N+](=O)[O-]
inactive

// outcome(item) with item = O=P(O)(OCc1ccccc1)OCc1ccccc1
inactive

// outcome(item) with item = Nc1ccc([N+](=O)[O-])c(N)c1
inactive

// outcome(item) with item = Cc1cccc(C)c1O
inactive

// outcome(item) with item = CCOC(=O)C(C)C(C)=O (configuration not stated)
inactive

// outcome(item) with item = Cc1nc2ccc(Cl)cc2[nH]1
inactive

// outcome(item) with item = Nc1ccc(F)cc1F
inactive

// outcome(item) with item = Nc1cccc([N+](=O)[O-])c1
inactive

// outcome(item) with item = CCOC(C)(C)C
inactive

// outcome(item) with item = CC/C=C/C#N
inactive

// outcome(item) with item = C=C(C)C1CC=C(C)C(OC(C)=O)C1 (configuration not stated)
inactive

// outcome(item) with item = CC=O
inactive

// outcome(item) with item = CC(C)CCOC(=O)/C=C/c1ccccc1
inactive

// outcome(item) with item = Cc1ccccc1C(=O)O
inactive

----------
- TARGET_SYSTEM: Retinoic acid receptor RXR-alpha (Homo sapiens) (UniProt P19793)
- Sequence (P19793 whole entry, looked up): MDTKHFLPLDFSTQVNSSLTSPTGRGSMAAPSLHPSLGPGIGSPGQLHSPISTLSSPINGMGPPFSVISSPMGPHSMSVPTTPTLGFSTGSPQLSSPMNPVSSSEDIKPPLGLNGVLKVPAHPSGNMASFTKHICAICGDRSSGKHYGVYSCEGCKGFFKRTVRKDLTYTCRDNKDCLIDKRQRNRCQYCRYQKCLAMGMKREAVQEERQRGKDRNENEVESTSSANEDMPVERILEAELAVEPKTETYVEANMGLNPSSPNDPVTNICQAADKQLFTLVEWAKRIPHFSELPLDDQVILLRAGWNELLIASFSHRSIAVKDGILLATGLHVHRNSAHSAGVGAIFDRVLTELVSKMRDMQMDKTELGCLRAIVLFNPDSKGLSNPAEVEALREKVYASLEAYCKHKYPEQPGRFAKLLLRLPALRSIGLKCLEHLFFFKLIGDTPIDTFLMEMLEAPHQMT
- PROTOCOL_DETAILS: qHTS assay for small molecule antagonists of retinoid X receptor alpha signaling (AID 588546);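 also: cells stimulated with 9-cis-retinoic acid as agonist; % is scaled to controls: 0 for no effect and ±100 for the full control effect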
- COND: HEK293T RXRa-UAS-bla, beta-lactamase ratio, antagonist mode
Results filed as inconclusive are left out.
Each item that follows carries a reported max response.
Only the number, expressed in %, is required.

• CC(N)CN (stereo not given) = 12.6
• COCCOC(=O)c1ccccc1C(=O)OCCOC = 23.2
• O=Cc1ccc(Cl)cc1 = -5.61
• Cc1ccc(Br)cc1 = -0.837
• ClC/C=C/CCl = 0.33

Recorded result, CC(=O)Nc1ccc(C)cc1 , max response: 5.73

Recorded result, CC(=O)CCc1ccccc1 , max response: 0.594
